# assayTarget: PolQ ATPase enzyme (1-894) (Homo sapiens (Human), UniProt O75417)
# Sequence (O75417 1-894): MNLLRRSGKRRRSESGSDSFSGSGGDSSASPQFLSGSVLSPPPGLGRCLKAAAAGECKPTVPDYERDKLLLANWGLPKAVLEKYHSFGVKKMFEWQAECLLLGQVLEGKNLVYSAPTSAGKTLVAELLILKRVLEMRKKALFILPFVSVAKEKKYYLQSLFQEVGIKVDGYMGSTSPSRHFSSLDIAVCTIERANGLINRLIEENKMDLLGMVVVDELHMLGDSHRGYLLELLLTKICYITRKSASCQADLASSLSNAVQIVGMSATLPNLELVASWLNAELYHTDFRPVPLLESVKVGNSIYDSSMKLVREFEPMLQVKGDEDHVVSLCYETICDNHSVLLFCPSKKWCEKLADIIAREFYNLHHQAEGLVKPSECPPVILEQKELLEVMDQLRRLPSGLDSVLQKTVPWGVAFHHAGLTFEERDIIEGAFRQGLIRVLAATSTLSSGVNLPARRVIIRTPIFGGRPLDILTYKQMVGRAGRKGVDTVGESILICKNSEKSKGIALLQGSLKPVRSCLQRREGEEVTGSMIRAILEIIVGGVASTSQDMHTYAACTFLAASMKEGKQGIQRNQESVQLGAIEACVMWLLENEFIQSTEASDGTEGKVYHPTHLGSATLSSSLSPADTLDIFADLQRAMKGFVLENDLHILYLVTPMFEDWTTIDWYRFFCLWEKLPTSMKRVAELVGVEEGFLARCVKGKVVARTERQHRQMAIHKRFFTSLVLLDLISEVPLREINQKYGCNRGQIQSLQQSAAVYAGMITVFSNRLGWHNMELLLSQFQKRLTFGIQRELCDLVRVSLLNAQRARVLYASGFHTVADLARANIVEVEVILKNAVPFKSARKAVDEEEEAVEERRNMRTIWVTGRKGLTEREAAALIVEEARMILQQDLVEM
# procedureText: Polθ ATPase enzymatic assay (0.5 nM enzyme concentration), ADP-Glo
# Format: biochemical
# runParameters: average IC50; 0.5 nM PolQ ATPase enzyme (1-894)
measuredParameter: IC50 (nM)
One number for each entry, in nM.

{"compound": "COc1ccc(C(F)(F)F)cc1-c1cc(-c2ccn(C)n2)ncc1C(=O)Nc1nnc(C#CC2CC2)s1 [Compound 309]", "recordedMeasurement": 0.99}

Next compound, please.
For the compound COc1cnc(Cl)cc1-c1cn(CC(=O)N(C)C)c(=O)cc1C(=O)Nc1nnc(C#CC2CC2)s1 [Compound 99] , what IC50 is on record?
0.36
